Target: TYK2-JH2 (Homo sapiens)
Construct: TYK JH2 enzyme mix (ChemPartnec CP20210818A-BV); purchased ChemPartner CP20210818A-BV
Assay: TYK2-JH2 HTRF binding assay (ligand efficiency)
Conditions: calculated from IC50 of the TYK-JH2 binding assay (Equation 1)

{"compound": "Cc1cccc(Nc2cc(Nc3cnccc3C(N)=O)ncn2)n1 [Compound 61]", "Ligand Efficiency": "††† (†††: >0.39)"}
{"compound": "C[C@@H](c1ccc(Nc2cc(Nc3ncccc3S(C)(=O)=O)ncn2)nc1C(F)(F)F)N1CC2(COC2)C1 [Compound 11]", "Ligand Efficiency": "†† (††: 0.37-0.39)"}
{"compound": "Cc1cc(Nc2cc(Nc3ncccc3S(C)(=O)=O)ncn2)nnc1C(C)N1CC2(COC2)C1 (stereo not drawn) [Compound 77]", "Ligand Efficiency": "†† (††: 0.37-0.39)"}
{"compound": "COc1ccc(Nc2cc(NC(=O)C3CC3)ncn2)c(C(N)=O)c1 [Compound 70]", "Ligand Efficiency": "††† (†††: >0.39)"}
{"compound": "Cc1cccc(Nc2cc(Nc3ccccc3S(C)(=O)=O)nc(N)n2)n1 [Compound 57]", "Ligand Efficiency": "††† (†††: >0.39)"}
{"compound": "CC(C)(NC1COC1)c1ccc(Nc2cc(Nc3ccccc3S(C)(=O)=O)ncn2)nc1 [Compound 39]", "Ligand Efficiency": "†† (††: 0.37-0.39)"}
{"compound": "Cc1cncc(Nc2cc(Nc3ccccc3C(N)=O)ncn2)n1 [Compound 49]", "Ligand Efficiency": "††† (†††: >0.39)"}
{"compound": "Cc1cccc(Nc2cc(Nc3cccnc3S(C)(=O)=O)ncn2)n1 [Compound 59]", "Ligand Efficiency": "††† (†††: >0.39)"}

====

Target: TYK2-JH2 (Homo sapiens, UniProt P29597)
Construct: TYK JH2 enzyme mix (ChemPartnec CP20210818A-BV); purchased ChemPartner CP20210818A-BV
Sequence (P29597 589-875 limits assumed): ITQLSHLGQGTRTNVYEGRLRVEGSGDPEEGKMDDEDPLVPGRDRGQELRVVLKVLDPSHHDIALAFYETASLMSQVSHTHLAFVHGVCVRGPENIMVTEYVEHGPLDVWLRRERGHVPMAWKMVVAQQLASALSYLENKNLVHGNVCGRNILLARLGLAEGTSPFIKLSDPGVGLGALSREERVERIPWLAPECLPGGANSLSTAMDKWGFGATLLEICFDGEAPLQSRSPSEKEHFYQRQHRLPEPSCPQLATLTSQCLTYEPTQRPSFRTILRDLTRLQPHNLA
Test: TYK2-JH2 HTRF binding assay (ligand efficiency)
Conditions: calculated from IC50 of the TYK-JH2 binding assay (Equation 1)

{"compound": "C[C@H]1CN(C)CCN1c1ccc(Nc2cc(Nc3ncccc3S(C)(=O)=O)ncn2)nc1", "Ligand Efficiency": "††† (†††: >0.39)"}
{"compound": "CC(c1ccc(Nc2ncnc(Nc3ncccc3S(C)(=O)=O)c2F)nc1)N1CC2(COC2)C1 (stereo not shown)", "Ligand Efficiency": "† (†: <0.37)"}
{"compound": "CC(c1ccc(Nc2cc(Nc3ncccc3S(C)(=O)=O)ncn2)nc1)N1CC2(CC(C(F)F)C2)C1 (stereo not shown)", "Ligand Efficiency": "†† (††: 0.37-0.39)"}
{"compound": "Cc1nc(Nc2cc(Nc3ncccc3S(C)(=O)=O)ncn2)ccc1NC1(C)COC1", "Ligand Efficiency": "††† (†††: >0.39)"}
{"compound": "CC(NC1CCOC1)c1ccc(Nc2cc(Nc3ccccc3S(C)(=O)=O)ncn2)nc1 (stereo not shown)", "Ligand Efficiency": "†† (††: 0.37-0.39)"}
{"compound": "Cn1cc(-c2ccnc(Nc3cc(Nc4ccc(NC5(C)COC5)cn4)ncn3)c2S(C)(=O)=O)cn1", "Ligand Efficiency": "† (†: <0.37)"}
{"compound": "CS(=O)(=O)c1ccccc1Nc1cc(Nc2ccc(C(=O)NC3CCOC3)cn2)ncn1 (stereo not shown)", "Ligand Efficiency": "†† (††: 0.37-0.39)"}
{"compound": "Cc1cnnc(Nc2cc(Nc3ccccc3C(N)=O)ncn2)c1", "Ligand Efficiency": "††† (†††: >0.39)"}
{"compound": "Cc1cccc(Nc2cc(Nc3ncccc3S(C)(=O)=O)ncn2)n1", "Ligand Efficiency": "††† (†††: >0.39)"}
{"compound": "CS(=O)(=O)c1cccnc1Nc1cc(Nc2ccc3c(n2)CCC[C@@H]3N2CC3(COC3)C2)ncn1", "Ligand Efficiency": "†† (††: 0.37-0.39)"}

Data origin: patent US12358904B2
